- target-entity: Indoleamine 2,3-dioxygenase 1 (Homo sapiens, UniProt P14902)
- Sequence (P14902 whole entry, looked up): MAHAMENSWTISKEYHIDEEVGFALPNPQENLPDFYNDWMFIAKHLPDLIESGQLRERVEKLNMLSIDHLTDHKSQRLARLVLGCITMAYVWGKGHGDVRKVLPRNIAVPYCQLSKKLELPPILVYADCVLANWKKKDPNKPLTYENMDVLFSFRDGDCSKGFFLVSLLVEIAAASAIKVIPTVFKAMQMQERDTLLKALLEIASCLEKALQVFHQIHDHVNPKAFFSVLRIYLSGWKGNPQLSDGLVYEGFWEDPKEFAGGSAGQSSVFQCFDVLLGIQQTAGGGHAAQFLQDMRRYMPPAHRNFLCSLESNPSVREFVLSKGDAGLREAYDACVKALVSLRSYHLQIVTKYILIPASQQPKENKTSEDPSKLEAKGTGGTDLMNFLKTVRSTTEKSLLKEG
- assay-procedure: Inhibition of human IDO1 transfected in HEK293T cells assessed as kynurenine formation using L-Trp as substrate at 200 uM after 7 hrs
- Format: cell-based
Quick rule: inhibition of at least 70% means TRUE, below that means FALSE.

1) c1ccc(-c2c[nH]nn2)c(CCC2CCCCC2)c1 ... TRUE
2) c1ccc(Cc2ccccc2-c2c[nH]nn2)cc1 ... TRUE
3) OC(Cc1ccccc1-c1c[nH]nn1)c1ccccc1 (stereo not drawn) ... FALSE
4) c1ccc(-c2c[nH]nn2)c(CCC2CCCC2)c1 ... TRUE
5) Clc1cccc(-c2c[nH]nn2)c1 ... TRUE
6) Clc1ccc(-c2c[nH]nn2)cc1 ... FALSE
7) c1ccc(-c2cnn[nH]2)cc1 ... TRUE
8) Clc1ccccc1-c1cnn[nH]1 ... TRUE
9) Clc1cccc(-c2c[nH]nn2)c1CCc1ccccc1 ... TRUE
10) c1ccc(CCc2ccccc2-c2c[nH]nn2)cc1 ... FALSE
11) Clc1cccc(-c2c[nH]nn2)c1/C=C/C1CCCCC1 ... FALSE

* * *

- target-entity: Indoleamine 2,3-dioxygenase 2 (Mus musculus)
- assay-procedure: Inhibition of mouse IDO2 transfected in HEK293T cells assessed as kynurenine formation using L-Trp as substrate at 200 uM after 24 hrs
- Format: cell-based
value-type: inhibition (%)

1. Clc1ccc(-c2c[nH]nn2)cc1 ... 27
2. Oc1ccccc1-c1c[nH]nn1 ... 14
3. Clc1cccc(-c2c[nH]nn2)c1/C=C/C1CCCCC1 ... 65
4. c1ccc(CCc2ccccc2-c2c[nH]nn2)cc1 ... 90
5. Clc1cccc(-c2c[nH]nn2)c1/C=C/c1ccccc1 ... 97
6. Clc1cccc(-c2c[nH]nn2)c1CCC1CCCC1 ... 90
7. Clc1cccc(-c2c[nH]nn2)c1 ... 2
8. OC(Cc1ccccc1-c1c[nH]nn1)c1ccccc1 (stereo not drawn) ... 47
9. c1ccc(-c2c[nH]nn2)c(CCC2CCCCC2)c1 ... 95
10. Clc1cccc(-c2c[nH]nn2)c1CCc1ccccc1 ... 94
11. c1ccc(-c2cnn[nH]2)cc1 ... 1
12. c1ccc(-c2c[nH]nn2)c(CCC2CCCC2)c1 ... 89
13. c1ccc(Cc2ccccc2-c2c[nH]nn2)cc1 ... 80

* * *

The entries below are paired with their reported inhibition.
- target-entity: Indoleamine 2,3-dioxygenase 2 (Mus musculus) (UniProt Q8R0V5)
- Sequence (whole entry): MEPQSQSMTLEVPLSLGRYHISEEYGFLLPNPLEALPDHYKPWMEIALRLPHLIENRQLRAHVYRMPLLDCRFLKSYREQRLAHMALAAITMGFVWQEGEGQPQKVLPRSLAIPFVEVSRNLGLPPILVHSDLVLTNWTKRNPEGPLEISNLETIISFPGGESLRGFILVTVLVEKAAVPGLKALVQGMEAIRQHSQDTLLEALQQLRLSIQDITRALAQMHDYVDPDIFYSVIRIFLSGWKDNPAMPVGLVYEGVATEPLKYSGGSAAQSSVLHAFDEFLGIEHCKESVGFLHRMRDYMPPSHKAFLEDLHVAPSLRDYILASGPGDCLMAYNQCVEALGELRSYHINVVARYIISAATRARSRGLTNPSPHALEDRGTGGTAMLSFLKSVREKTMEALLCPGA
- assay-procedure: Inhibition of mouse IDO2 transfected in HEK293T cells assessed as kynurenine formation using L-Trp as substrate at 200 uM after 24 hrs
- Type: cell-based
value-type: inhibition (%)

1) Oc1ccc(Cl)cc1-c1c[nH]nn1 ... 43
2) Clc1ccc(CCc2ccccc2)c(-c2c[nH]nn2)c1 ... 97
3) Clc1ccccc1-c1cnn[nH]1 ... 4

* * *

- Tested on: HEK-293T
- assay-procedure: Cytotoxicity against HEK293T cells transfected with human IDO1 or mouse IDO2 assessed as apoptotic cells at 200 uM after 7 hrs or 24 hrs by DAPI staining based cytometric analysis relative to control
- Format: cell-based
I'd appreciate it if you could label each record using Activity and these ranges: Low (below 0.2%), Mid (0.2% to below 40%), High (40% or more)

1) Clc1cccc(-c2c[nH]nn2)c1/C=C/c1ccccc1 ... High
2) Clc1cccc(-c2c[nH]nn2)c1/C=C/C1CCCCC1 ... Mid
3) c1ccc(-c2cnn[nH]2)cc1 ... Mid
4) OC(Cc1ccccc1-c1c[nH]nn1)c1ccccc1 (stereo not given) ... Low
5) Oc1ccc(Cl)cc1-c1c[nH]nn1 ... Low
6) c1ccc(-c2c[nH]nn2)c(CCC2CCCCC2)c1 ... High
7) c1ccc(Cc2ccccc2-c2c[nH]nn2)cc1 ... Low
8) Clc1cccc(-c2c[nH]nn2)c1CCC1CCCC1 ... Mid
9) Clc1cccc(-c2c[nH]nn2)c1CCc1ccccc1 ... High
10) Clc1ccc(CCc2ccccc2)c(-c2c[nH]nn2)c1 ... High
11) c1ccc(-c2c[nH]nn2)c(CCC2CCCC2)c1 ... Mid
12) Clc1cccc(-c2c[nH]nn2)c1 ... Low
13) c1ccc(CCc2ccccc2-c2c[nH]nn2)cc1 ... Mid

* * *

- target-entity: Indoleamine 2,3-dioxygenase 1 (Homo sapiens)
- assay-procedure: Inhibition of human IDO1 transfected in HEK293T cells assessed as kynurenine formation using L-Trp as substrate at 200 uM after 7 hrs
- Type: cell-based
value-type: inhibition (%)

1) Oc1ccccc1-c1c[nH]nn1 ... 96
2) Clc1cccc(-c2c[nH]nn2)c1/C=C/c1ccccc1 ... 32
3) Oc1ccc(Cl)cc1-c1c[nH]nn1 ... 98

* * *

- target-entity: Indoleamine 2,3-dioxygenase 2 (Mus musculus, UniProt Q8R0V5)
- assay-procedure: Inhibition of mouse IDO2 transfected in HEK293T cells assessed as kynurenine formation using L-Trp as substrate after 24 hrs
value-type: IC50 (µM)

1. Clc1cccc(-c2c[nH]nn2)c1/C=C/C1CCCCC1 ... 110
2. c1ccc(CCc2ccccc2-c2c[nH]nn2)cc1 ... 51
3. c1ccc(Cc2ccccc2-c2c[nH]nn2)cc1 ... 70
4. Oc1ccc(Cl)cc1-c1c[nH]nn1 ... 120
